# ASSAY DETAILS: In vivo topical administration pharmacokinetics of K173, rabbit (aqueous humor, cornea)
# TEST SETTINGS: aqueous humor, topical or ocular, 5 mg/ml, Group 2 (4 doses), topical 5 mg/ml, 24 hr post-last dose, OS, individual animals, read-out: K173 Concentrations (ng/mL) in Rabbit Aqueous Humor OS Sample
# Method: Animals were not tranquilized for the examinations. The remaining ocular tissues were discarded. Ocular samples were stored −80° C. The rabbit efficacy model can be used to determine if QD or BID dosing is optimal for clinical utility.
Positions of bridges follow the written chain, without caps; N, C: chain ends. Non-standard residues stand in square brackets, D forms with d. Residues, ends and D or L forms follow the SMILES beside them. Triazole bridges read from a SMILES are 1,4-linked. *: point of attachment. Benzoyl(3,5-(OH)2) = O=C(c1cc(O)cc(O)c1)*; Lys(N3) = [N-]=[N+]=NCCCC[C@H](N)C(=O)O; dPhe(4-F) = N[C@H](Cc1ccc(F)cc1)C(=O)O; Nle = CCCC[C@H](N)C(=O)O; Pra = C#CC[C@H](N)C(=O)O
EXPERIMENTAL READOUT: level at 24 h (ng/mL)
Supply the numeric figure in ng/mL, leaving out any unit text.

# get_value(readout='level at 24 h', item= CCCC[C@H](NC(=O)c1cc(O)cc(O)c1)C(=O)N[C@H]1CCCCn2cc(nn2)C[C@@H](C(N)=O)NC(=O)[C@H](Cc2c[nH]c3ccccc23)NC(=O)[C@H](CCCNC(=N)N)NC(=O)[C@@H](Cc2ccc(F)cc2)NC(=O)[C@H](Cc2c[nH]cn2)NC1=O [KR-072] ({Benzoyl(3,5-(OH)2)}-[Nle][Lys(N3)]H[dPhe(4-F)]RW[Pra]-NH2; triazole 2-7) ) 2.3

Numbers sourced from patent US20260152527A1.
